assay: BSK_SAg_SRB: Viability Assessment in the BioMAP Diversity Plus: SAg Assay (AID 2283096);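 also: cells read one day after compound addition; hits may be either gain or loss of signal compared with DMSO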
condition: primary human HUVEC with PBMC
Active and inactive are the calls of the source. The calls were made as follows: active = hit-call score of the fitted dose curve at least 0.9, where 1 is the maximum; inactive = score below 0.9.
The reply should be one of these categories: YES (active), NO (inactive)

Example entries and their recorded answers appear below.
# compound, cat
data = [
    ("CO[C@@H]1[C@H](OC(=O)NC(=O)CCl)CC[C@]2(CO2)[C@H]1[C@@]1(C)O[C@@H]1CC=C(C)C", "NO"),
    ("[As]#[In]", "NO"),
    ("Oc1ccccc1Cl", "NO"),
]

Recorded test outcome, item `CC(C)(C)OOC(C)(C)CCC(C)(C)OOC(C)(C)C`
NO

Recorded test outcome, item `COC(=O)Nc1nc2ccccc2[nH]1`
YES

Recorded test outcome, item `CCC[CH2][Sn]([Cl])([CH2]CCC)[CH2]CCC`
YES

Recorded test outcome, item `CC(C)(O)c1cnn2c(-c3ccc(F)c(-c4c(F)cccc4C#N)c3)cnc2n1`
NO

Recorded test outcome, item `CN(C)[C@@H]1C(=O)C(C(N)=O)=C(O)[C@@]2(O)C(=O)C3=C(O)c4c(O)cccc4[C@@](C)(O)[C@H]3C[C@@H]12`
NO

Recorded test outcome, item `Brc1ccc(Oc2ccccc2)cc1`
NO

Ref: PubChem BioAssay (EPA / NIEHS)
